Biological target: Apelin receptor (Homo sapiens) (UniProt P35414)
Experiment: potency against CXCR6 with APJ panel – cell-based, beta-arrestin, DiscoveRx, uHTS hits, dose response (AID 624129)
Details: CXCR6 beta-arrestin (DiscoveRx) antagonist cell assay, APJ, dose range 1
Calls of active or inactive are those of the source. How the calls were made is not given here.
Please state which outcome applies, choosing from true = active, false = inactive

Take a look at these entries with their results.
CCC(C)c1ccc(O)c(NC(=S)NC(=O)c2cccnc2)c1 (stereo not given); true
Cc1ccc(OCCn2c(NC(=O)c3ccco3)nc3ccccc32)cc1; true
S=C(NCCCN1CCOCC1)Nc1ccc(Cl)cc1; true

Write down the call the test reported for this molecule. Item: Cc1nnc(Sc2cc(NCCCO)c([N+](=O)[O-])c3nonc23)s1 true

Write down the call the test reported for this molecule. Item: N#CC(C#N)=C1C=CC=CN1/C(=C\c1ccco1)C(=O)c1ccccc1 true

Write down the call the test reported for this molecule. Item: O=C1CN(C(=O)CSc2nc3cc(Cl)ccc3c(=O)n2Cc2ccccc2)c2ccccc2N1 false

Write down the call the test reported for this molecule. Item: CC1(C)CC(=O)C(C=Nc2ccc(C(=O)c3ccccc3)cc2N=CC2=C(O)CC(C)(C)CC2=O)=C(O)C1 false

Write down the call the test reported for this molecule. Item: Cc1[nH][nH]c(=O)c1C(c1c(C)[nH][nH]c1=O)c1cn(Cc2ccc(F)cc2)c2ccccc12 true

Write down the call the test reported for this molecule. Item: CN(C)c1nc(=NCc2cccs2)ss1 true

---

Target: C-X-C chemokine receptor type 6 (Homo sapiens) (UniProt O00574)
Sequence (O00574 whole entry, looked up): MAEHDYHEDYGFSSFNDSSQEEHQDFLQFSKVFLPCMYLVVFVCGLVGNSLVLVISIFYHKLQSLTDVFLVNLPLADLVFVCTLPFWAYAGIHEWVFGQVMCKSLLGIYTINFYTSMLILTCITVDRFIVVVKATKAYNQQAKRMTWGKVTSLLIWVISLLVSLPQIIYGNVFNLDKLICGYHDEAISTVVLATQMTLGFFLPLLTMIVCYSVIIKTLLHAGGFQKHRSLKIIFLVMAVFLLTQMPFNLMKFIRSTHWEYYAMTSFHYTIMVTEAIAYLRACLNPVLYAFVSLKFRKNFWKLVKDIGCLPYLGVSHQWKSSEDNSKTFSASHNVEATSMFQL
Assay: potency against CXCR6 with APJ panel – cell-based, beta-arrestin, DiscoveRx, uHTS hits, dose response (AID 624129)
Conditions: CXCR6 beta-arrestin (DiscoveRx) antagonist cell assay, CXCR6, run 2, dose range 1
Readout Type: pIC50
Give bare numbers, as −log10 of the molar value.

Below are worked cases with known answers.
CCCCCCN1C=C/C(=C\C=C(C#N)C#N)c2ccccc21; 4.36
O=C1C=CC(=O)N1Cc1ccccc1; 5.23
O=C1c2sc3nc4ccccc4n3c2C(=O)N1c1ccccc1Cl; 4.82

# return pIC50 for each item in the list
1. C=C1C(=O)c2sccc2C(c2ccc(OC)c(OC)c2)C1COC(C)=O (stereo unspecified)
2. COc1ccc(C(=O)N/N=C(\C)c2ccccn2)cc1OC
3. CCCCCCCCn1sccc1=O
4. O=C(CSc1cccc2cccnc12)N1CCCC1
5. O=[N+]([O-])c1cc(Cc2ccccc2)cc(C=Nc2ccc(N3CCOCC3)cc2)c1O
6. COc1cc2c(cc1OC)C1(CCCC1)CNC2c1cccc([N+](=O)[O-])c1 (stereo unspecified)
7. Cc1ccc(C(=O)Sc2cccccc2=O)cc1
8. Cc1[nH][nH]c(=O)c1C(c1c(C)[nH][nH]c1=O)c1cn(Cc2ccc(Cl)c(Cl)c2)c2ccccc12

[5.17, 5.58, 5.06, 5.20, 4.88, 4.92, 5.75, 4.61]

# return pIC50 for each item in the list
1. CC1(C)CC(=O)C2=C(C1)OC1=C(C(=O)CC(C)(C)C1)C2c1ccc(O)cc1O
2. Cc1ccc(S(=O)(=O)Nc2cccc3cccnc23)cc1
3. COc1ccc(C2CC(c3c(O)n(CCc4ccccc4)c(=O)[nH]c3=O)=NN2)cc1OC (stereo unspecified)

1. 5.03
2. 5.24
3. 4.65

---

Target: C-C chemokine receptor type 6 (Homo sapiens) (UniProt P51684)
Test: potency against CXCR6 with APJ panel – cell-based, beta-arrestin, DiscoveRx, uHTS hits, dose response (AID 624129)
Details: CXCR6 beta-arrestin (DiscoveRx) antagonist cell assay, CCR6, run 2, dose range 1
For each entry below, report its IC50 value.

Below are worked cases with known answers.
O=[N+]([O-])/C=C/c1c(Cl)cccc1Cl; > 80 µM
COc1ccc(-c2csc(Cc3nc(O)cs3)n2)cc1; 4.1 µM
Cc1ccc2c(C)ccc(O)c2n1; 5.87 µM
COc1ccc(Nc2ccc([N+](=O)[O-])c3nonc23)c(OC)c1; > 80 µM
Cn1c(O)c(C2=NNC(c3ccc(Cl)cc3)C2)c(=O)n(C)c1=O (centres undefined); 16 µM
O=C(/C=C/c1cccc([N+](=O)[O-])c1)c1ccc([N+](=O)[O-])o1; 34.9 µM
Cc1cccc(C(=O)Nc2ccc(C(=O)/C=C/c3cccnc3)cc2)c1; 6.11 µM
COc1ccc(OC)c2sc(N(CCCN(C)C)C(=O)CCS(=O)(=O)c3ccccc3)nc12; 12.3 µM

Read the next record carefully.
What reported IC50 corresponds to C/C(=N\NC(=O)Cn1c(-c2ccccn2)nc2ccccc21)c1ccccc1 on C-C chemokine receptor type 6 (Homo sapiens) (UniProt P51684)? 18.7 µM

---

For each entry below, report its pIC50 value.
Molecular target: C-C chemokine receptor type 6 (Homo sapiens)
Experiment: potency against CXCR6 with APJ panel – cell-based, beta-arrestin, DiscoveRx, uHTS hits, dose response (AID 624129)
Settings: CXCR6 beta-arrestin (DiscoveRx) antagonist cell assay, CCR6, dose range 1, mean IC50 across replicates
pIC50: −log10 of the molar value.

# return pIC50 for each item in the list
1. Cc1cc(C)c2ccc(N)nc2c1O
2. COc1ccc(C(=O)/C=C/C(=O)N(CC(=O)NC2CCCCC2)Cc2ccccc2)c(O)c1
3. COc1cc(C(=O)NC2CC3CCCC(C2)N3CC(=O)Nc2ccccc2)cc(OC)c1OC (configuration not stated)
4. COc1ccccc1-c1cc(C(F)(F)F)nc(S(=O)(=O)CCCC(=O)NCc2ccc(F)cc2)n1
5. CN(C(=O)CSC1=Nc2ccccc2C2=NC(c3ccccc3)C(=O)N12)C1CCCCC1 (configuration not stated)
6. CCOC(=O)c1c(SCCN2CCCC2)n(-c2ccccc2)c(=S)n(-c2ccccc2)c1=O
7. Cc1cccc(C(=O)Nc2ccc(C(=O)/C=C/c3ccncc3)cc2)c1

1: < 4.10; 2: < 4.10; 3: < 4.10; 4: < 4.10; 5: < 4.10; 6: < 4.10; 7: < 4.10

---

Target: C-X-C chemokine receptor type 6 (Homo sapiens) (UniProt O00574)
Test: potency against CXCR6 with APJ panel – cell-based, beta-arrestin, DiscoveRx, uHTS hits, dose response (AID 624129)
Details: CXCR6 beta-arrestin (DiscoveRx) antagonist cell assay, CXCR6, run 2, dose range 1, at 79 µM (top of the series)
Readout Type: inhibition (%)
One number for each entry, in %.

COC(=O)c1ccc(NC(=O)c2nc(S(=O)(=O)Cc3cccc(C)c3)ncc2Cl)cc1; 107
COc1cccc2sc(N(CCCN(C)C)C(=O)CCS(=O)(=O)c3ccccc3)nc12; 111
COc1cc(C(=O)NCC(c2ccco2)N2CCc3ccccc3C2)cc(OC)c1OC (stereo unspecified); 72.2
Cc1[nH]n2c(=O)cc(-c3ccc([N+](=O)[O-])cc3)nc2c1-c1ccccc1; 81.6

# return inhibition for each item in the list
1. Cc1ccc(NC(=O)c2ccc(Nc3c([N+](=O)[O-])cc([N+](=O)[O-])cc3[N+](=O)[O-])cc2)cc1
2. C/C(=N\Nc1nc2ccccc2[nH]1)c1ccccn1

[89.3, -12.1]

---

Molecular target: Beta-galactosidase (Escherichia coli)
Assay: potency against CXCR6 with APJ panel – cell-based, beta-arrestin, DiscoveRx, uHTS hits, dose response (AID 624129)
Conditions: CXCR6 beta-arrestin (DiscoveRx) antagonist cell assay, b-galactosidase, dose range 1
The source made the active and inactive calls. How the calls were made is not given here.
Please state which outcome applies, choosing from 1 = active, -1 = inactive

Take a look at these entries with their results.
O=C(Cn1sc2ccccc2c1=O)NC12CC3CC(CC(C3)C1)C2; -1
Cc1cccc(C(=O)Nc2ccc(C(=O)/C=C/c3ccncc3)cc2)c1; -1
COc1ccc(NC(=O)/C(Cl)=C(/Cl)S(=O)Cc2ccc(Cl)cc2)cn1 (stereo not drawn); -1

Write down the call the test reported for this compound. Item: O=C(NNC(=O)C12CC3CC(CC(C3)C1)C2)c1ccccn1 -1

Write down the call the test reported for this compound. Item: CC(=O)OCCNc1cc(SCc2ccco2)c2nonc2c1[N+](=O)[O-] -1

Write down the call the test reported for this compound. Item: CN(C)S(=O)(=O)c1cccc(NC(=O)CSc2cccc3cccnc23)c1 -1

Write down the call the test reported for this compound. Item: Cc1ccc(-c2oc3ccccc3c(=O)c2O)cc1 -1

Write down the call the test reported for this compound. Item: Cc1ccc(CN2C(=O)C(Cc3ccccc3)Nc3ncnc(N4CCN(c5ccccc5)CC4)c32)cc1 (stereo not drawn) 1

---

Molecular target: C-C chemokine receptor type 6 (Homo sapiens)
Experiment: potency against CXCR6 with APJ panel – cell-based, beta-arrestin, DiscoveRx, uHTS hits, dose response (AID 624129)
Conditions: CXCR6 beta-arrestin (DiscoveRx) antagonist cell assay, CCR6, dose range 1, mean IC50 across replicates
For each entry below, report its pIC50 value.
Numbers only, as −log10 of the molar value.

CCOC(=O)c1c(SCCN2CCCCC2)n(-c2ccccc2)c(=S)n(-c2ccccc2)c1=O; 5.23
Cc1ccc(OCCn2c(NC(=O)c3ccco3)nc3ccccc32)cc1; 5.40

Data request, read-out pIC50, for C/C(=N\NC(=O)C(c1ccccc1)c1ccccc1)c1ccccn1 5.65
